- assay system: recombinant His-tagged human cyclin A2 (sequence 174-432) (human) (UniProt P20248)
- protocol: other fluorescence titration
*: point of attachment. X2 = 4‑((4-methylpiperazin-1-yl)methyl)benzoic acid, CN1CCN(Cc2ccc(C(=O)*)cc2)CC1
value kind: pKd
pKd here is simply -log10 of the concentration when that concentration is written in mol/L.

Q: Please report the recorded pKd for X2-RLIF-NH2 [SCCP5921: 4-((4-methylpiperazin-1-yl)methyl)benzoic acid ligated to the p21 C-terminus, RLIF] .
A: 5.18
